# Test system: H. influenza Hi4 efflux pump KO
Consider the following compounds and their measured MIC readings.

INSERT INTO results (compound, reported_measurement) VALUES
  ('COC[C@@H]1[C@@H](O)[C@@H]2[C@H]3CC[C@@H]4[C@@H](COC)C(=O)O[C@H]([C@H](O)COC)[C@H](C)/C=C(\C)[C@@]24O[C@H]3[C@@H]1OC(=O)c1ccc[nH]1', '16 µg/mL'),
  ('COCC(=NO)[C@H]1OC(=O)[C@H](COC)[C@H]2C=C[C@H]3[C@H]4O[C@]2(/C(C)=C/[C@H]1C)[C@@H]3[C@H](O)[C@@H](COC)[C@H]4OC(=O)c1cc(Cl)c[nH]1', '8 µg/mL'),
  ('COC[C@@H]1[C@@H](O)[C@@H]2[C@H]3C=C[C@@H]4[C@@H](COC)C(=O)O[C@H]([C@H](O)COC)[C@H](C)/C=C(\C)[C@@]24O[C@H]3[C@@H]1OC(=O)c1ccon1', '16 µg/mL'),
  ('COCC[C@H]1OC(=O)[C@H](COC)[C@H]2C=C[C@H]3[C@H]4O[C@]2(/C(C)=C/[C@H]1C)[C@@H]3[C@H](O)[C@@H](COC)[C@H]4OC(=O)c1ccc[nH]1', '16 µg/mL'),
  ('COC[C@@H]1[C@@H](O)[C@@H]2[C@H]3C=C[C@@H]4[C@@H](COC)C(=O)O[C@H]([C@H](O)COC)[C@H](C)/C=C(\C)[C@@]24O[C@H]3[C@@H]1OC(=O)c1cc(C#N)c[nH]1', '8 µg/mL');

Lab note: next compound to report on.
Query block: Under H. influenza Hi4 efflux pump KO, report MIC for CO[C@H]1C[C@H]2C=C[C@H]3[C@H]4O[C@]2(/C(C)=C/[C@@H](C)[C@@H]([C@@H](C)O)OC1=O)[C@@H]3[C@H](O)[C@@H](C)[C@H]4O [Nodusmicin, reference compound]
Result block: 2 µg/mL

src = patent US20160297830A1
